Value source: patent US10165776B2

# System: Scirpus juncoides
# METHOD_DESCRIPTION: Paddy herbicidal activity test
# Assay type: in vivo
# APPLIED_CONDITIONS: 1 g a.i./10 a; irrigated pot, treated at 3.5 leaf stage of Echinochloa crus-galli; 30 days at 30° C.
Recorded herbicidal efficacy, Scirpus juncoides values for a group of compounds are listed next.

{"columns": ["COMPOUND", "herbicidal efficacy, Scirpus juncoides"],
 "data": [
  ["N#Cc1cnn(-c2nn3c(c2Cl)CCCC3)c1NC(=O)CCc1ccccc1", "10 (10: 100%)"],
  ["N#Cc1cnn(-c2nn3c(c2Cl)CCCC3)c1NC(=O)Cc1ccc(F)cc1", "9 (9: 90% to less than 100%)"],
  ["O=C(Nc1c([N+](=O)[O-])cnn1-c1nn2c(c1Cl)CCCC2)c1ccccc1 [Control agent 2.19, reference compound]", "1 (1: 10% to less than 20%)"],
  ["Cc1ccccc1CC(=O)Nc1c(C#N)cnn1-c1nn2c(c1Cl)CCCC2", "10 (10: 100%)"],
  ["Cc1cccc(CC(=O)Nc2c(C#N)cnn2-c2nn3c(c2Cl)CCCC3)c1", "9 (9: 90% to less than 100%)"],
  ["N#Cc1cnn(-c2nn3c(c2Cl)CCCC3)c1NC(=O)c1ccccc1 [Control agent 4.192, reference compound]", "3 (3: 30% to less than 40%)"],
  ["N#Cc1cnn(-c2nn3c(c2Cl)CCCC3)c1NC(=O)Cc1cccc(F)c1", "9 (9: 90% to less than 100%)"],
  ["N#Cc1cnn(-c2nn3c(c2Cl)CCCC3)c1NC(=O)Cc1ccccc1", "9 (9: 90% to less than 100%)"],
  ["O=C(Cc1ccccc1)Nc1c([N+](=O)[O-])cnn1-c1nn2c(c1Cl)CCCC2", "9 (9: 90% to less than 100%)"]
]}
